Where do the numbers come from? From the supplement of paper PMC4723716.

# Test system: Plasmodium falciparum NF54 gametocytes
# CONDITION SUMMARY: gametocyte stage: Stage V Dose Response IC50 (µM); assay protocol: TSSA, 384; incubation time: 72 h
METRIC NAME: IC50 of gametocyte viability

These recorded examples may help you get a feel for the data.
{"COMPOUND": "C=C(NC(=O)C(=C)NC(=O)c1csc(C2=N[C@@H]3c4csc(n4)[C@H]4NC(=O)c5csc(n5)[C@H]([C@](C)(O)[C@@H](C)O)NC(=O)[C@H]5CSC(=N5)/C(=C/C)NC(=O)[C@H]([C@@H](C)O)NC(=O)c5csc(n5)[C@]3(CC2)NC(=O)[C@H](C)NC(=O)C(=C)NC(=O)[C@H](C)NC(=O)[C@H]([C@@H](C)CC)N[C@@H]2C=Cc3c([C@H](C)O)cc(nc3[C@H]2O)C(=O)O[C@@H]4C)n1)C(N)=O", "IC50 of gametocyte viability": "3.42 µM"}
{"COMPOUND": "CC(C)(C)NCc1cc(Nc2ccnc3cc(Cl)ccc23)c2c(c1O)CCCC2", "IC50 of gametocyte viability": "> 4.17 µM"}
{"COMPOUND": "COc1cc(N[C@H](C)CCCN)c2nccc(C)c2c1Oc1ccc(Cl)c(Cl)c1 [NPC-1161B]", "IC50 of gametocyte viability": "5.22 µM"}
{"COMPOUND": "C[C@H]1c2cccc(O)c2C(O)=C2C(=O)[C@]3(O)C(O)=C(C(N)=O)C(=O)[C@@H](N(C)C)[C@@H]3[C@@H](O)[C@@H]21", "IC50 of gametocyte viability": "> 12.5 µM"}
{"COMPOUND": "Cc1cc(NS(=O)(=O)c2ccc(N)cc2)no1", "IC50 of gametocyte viability": "> 12.5 µM"}

Now, please, on to the next compound.
Ask | Please tell me: IC50 of gametocyte viability of "CC[C@H]1OC(=O)[C@H](C)[C@@H](O[C@H]2C[C@@](C)(OC)[C@@H](O)[C@H](C)O2)[C@H](C)[C@@H](O[C@@H]2O[C@H](C)C[C@H](N(C)C)[C@H]2O)[C@](C)(O)C[C@@H](C)CN(C)[C@H](C)[C@@H](O)[C@]1(C)O" , system Plasmodium falciparum NF54 gametocytes?
Reply | > 12.5 µM

###

# Tested on: Plasmodium falciparum NF54 gametocytes
# CONDITION SUMMARY: gametocyte stage: Stage V Dose Response IC50 (µM); assay protocol: TSSA, 384; incubation time: 72 h
Counter-ions that a name gives are not always drawn.
Entries and their IC50 of gametocyte viability

{"COMPOUND": "C[C@H]1[C@H](N2CCS(=O)(=O)CC2)O[C@@H]2O[C@@]3(C)CC[C@H]4[C@H](C)CC[C@@H]1[C@@]24OO3 [Artemisone]", "RESULT VALUE": "> 7.85 µM"}

Ask | Suppose we examine the compound c1cc([C@H]2CC[C@]3(CC2)OO[C@]2(O3)C3CC4CC(C3)CC2C4)ccc1OCCN1CCOCC1 [OZ 439 mesylate] ; what IC50 of gametocyte viability value has been reported?
Reply | > 12.5 µM

Ask | Request: CO[C@H]1O[C@@H]2O[C@@]3(C)CC[C@H]4[C@H](C)CC[C@@H]([C@H]1C)[C@@]24OO3 [Artemether]
Reply | > 12.5 µM
